# Species on record: Rattus norvegicus
# Method Description: Open TG-GATES - Regimen: Single
# Format: toxicity, organism-based, Sprague-Dawley
# Design: regimen Single, gender Male, age 6 weeks
# Run Conditions: in vivo, po, 100 mg/kg, 9 h, tissue Blood, route gavage, dose level High
Consider the following compounds; for each one, report its Fbg.
Note: unit mg/dL is implicit; provide only the numeric part.

Input: Name the recorded Fbg for `CN(C)CCCN1c2ccccc2CCc2ccccc21` .
Output: 309.4

Input: Please give the result for `CN(C)CCN(Cc1cccs1)c1ccccn1` too.
Output: 284.6

Input: Now this one: `CN(C)CCCN1c2ccccc2CCc2ccc(Cl)cc21`
Output: 270.4

Input: // query: `CC1=C(/C=C/C(C)=C/C=C/C(C)=C/CO)C(C)(C)CCC1`
Output: 288.4

----------
# Species on record: Rattus norvegicus
# Method Description: Open TG-GATES - Regimen: Single
# Type: toxicity, organism-based, Sprague-Dawley
# Design: regimen Single, gender Male, age 6 weeks
# Run Conditions: in vivo, po, 10 mg/kg, 6 h, tissue Kidney, route gavage, dose level Low
Readout Name: KIDNEY_TOTAL (g)
Just the number please, in g, no unit attached.

Input: Give its KIDNEY_TOTAL value. Item: CN(C)CCCN1c2ccccc2CCc2ccc(Cl)cc21 [CLOMIPRAMINE]
Output: 2

Input: Next: CN(C)CCCN1c2ccccc2CCc2ccccc21 [IMIPRAMINE]
Output: 1.9

Input: Please do the same for `CN(C)CCN(Cc1cccs1)c1ccccn1` as well.
Output: 1.9

Input: # iterate: CC1=C(/C=C/C(C)=C/C=C/C(C)=C/CO)C(C)(C)CCC1 [RETINOL]
Output: 1.9

Input: Okay, and CC(C)OC(=O)C(C)(C)Oc1ccc(C(=O)c2ccc(Cl)cc2)cc1 [FENOFIBRATE] ?
Output: 1.6

----------
# Species: Rattus norvegicus
# Method Description: Open TG-GATES - Regimen: Daily Repeat
# Type: toxicity, organism-based, Sprague-Dawley
# Parameters: regimen Daily Repeat, gender Male, age 6 weeks
# Run Conditions: in vivo, po, 0 mg/kg, […], tissue Plasma, route gavage, dose level Control, time 14 day
For each of the molecules below, state its CRE.
Numeric only. Scale: mg/dL

Input: For the molecule `NC(N)=Nc1nc(CSCCC(N)=NS(N)(=O)=O)cs1` , what CRE is on record?
Output: 0.5

Input: Another molecule to look at: CCCNC(=O)NS(=O)(=O)c1ccc(Cl)cc1 [CHLORPROPAMIDE]
Output: 0.2

Input: Same thing, different molecule: `CN1C(=O)CN=C(c2ccccc2)c2cc(Cl)ccc21`
Output: 0.6

Input: And then `CN(C)CCN(Cc1cccs1)c1ccccn1` , what is it?
Output: 0.2

Input: And CC(C)OC(=O)C(C)(C)Oc1ccc(C(=O)c2ccc(Cl)cc2)cc1 [FENOFIBRATE] ?
Output: 0.2

Input: Also need CCOC(=O)CCC(=O)O[C@H]1[C@H](O[C@@H]2[C@@H](C)[C@H](O[C@H]3C[C@@](C)(OC)[C@@H](O)[C@H](C)O3)[C@@H](C)C(=O)O[C@H](CC)[C@@](C)(O)[C@H](O)[C@@H](C)C(=O)[C@H](C)C[C@@]2(C)O)O[C@H](C)C[C@@H]1N(C)C [ERYTHROMYCIN ETHYLSUCCINATE] , thanks.
Output: 0.2

Input: Likewise for `CC1=C(/C=C/C(C)=C/C=C/C(C)=C/CO)C(C)(C)CCC1` ?
Output: 0.2

Input: `CN(C)CCCN1c2ccccc2CCc2ccccc21` , same question.
Output: 0.2
